assay: Cytotoxicity against human A375P cells incubated for 72 hrs by MTT assay; assay type: functional, cell-based
measure: IC50 (nM)
API: value field is a number in nM; no unit string.

Specify IC50 for CNCCN(CCNc1ccnc2cc(Cl)ccc12)CCNc1ccnc2cc(Cl)ccc12 and stop.
13000

Answer with the recorded IC50 of CCOCCOCCN(CCNc1ccnc2cc(Cl)ccc12)CCNc1ccnc2cc(Cl)ccc12 only.
5990

Give reported IC50 value for CCCCCCCCN(CCNc1ccnc2cc(Cl)ccc12)CCNc1ccnc2cc(Cl)ccc12
1280

For NCCN(CCNc1ccnc2cc(Cl)ccc12)CCNc1ccnc2cc(Cl)ccc12 , write its IC50.
12300

Specify measured IC50 for CCCCCCCCN(CCCCCCNc1ccnc2cc(Cl)ccc12)CCCCCCNc1ccnc2cc(Cl)ccc12 .
420

Please give measured IC50 of the following entry: CCOCCOCCN(CCCCCCNc1ccnc2cc(Cl)ccc12)CCCCCCNc1ccnc2cc(Cl)ccc12
650

For the compound CN(C)CCN(CCNc1ccnc2cc(Cl)ccc12)CCNc1ccnc2cc(Cl)ccc12 , report IC50.
4600

Quick one: give measured IC50 for CN(CCCCCCNc1ccnc2cc(Cl)ccc12)CCCCCCNc1ccnc2cc(Cl)ccc12
490

---

experiment: Inhibition of autophagy in human A375P cells assessed as fold change in p62 at 3 uM incubated for 24 hrs by immunoblot analysis relative to control; assay type: functional
# note: boundary value 2 maps to label 0; fold change (FC) below it maps to label 1

Bench note: check whether Clc1ccc2c(NCCCCCCNCCCCCCNc3ccnc4cc(Cl)ccc34)ccnc2c1 shows fold change (FC) below 2
label 1

Item CN(CCCCCCNc1ccnc2cc(Cl)ccc12)CCCCCCNc1ccnc2cc(Cl)ccc12 : fold change (FC) beneath 2, strictly?
label 1

Confirm or reject: fold change (FC) of CCCCCCCCN(CCNc1ccnc2cc(Cl)ccc12)CCNc1ccnc2cc(Cl)ccc12 lies strictly below 2
label 0

Strictly below 2 in fold change (FC)? CCCCCCCCN(CCCCCCNc1ccnc2cc(Cl)ccc12)CCCCCCNc1ccnc2cc(Cl)ccc12
label 1

Dear colleague, could you confirm whether fold change (FC) of CCOCCOCCN(CCCCCCNc1ccnc2cc(Cl)ccc12)CCCCCCNc1ccnc2cc(Cl)ccc12 falls below 2? Thanks.
label 0

The reported measurements were obtained from ChEMBL document CHEMBL4823297.
